Where these numbers come from: ChEMBL document CHEMBL4196228

Target: Menin/Histone-lysine N-methyltransferase MLL (Homo sapiens)
Sequence (O00255 whole entry): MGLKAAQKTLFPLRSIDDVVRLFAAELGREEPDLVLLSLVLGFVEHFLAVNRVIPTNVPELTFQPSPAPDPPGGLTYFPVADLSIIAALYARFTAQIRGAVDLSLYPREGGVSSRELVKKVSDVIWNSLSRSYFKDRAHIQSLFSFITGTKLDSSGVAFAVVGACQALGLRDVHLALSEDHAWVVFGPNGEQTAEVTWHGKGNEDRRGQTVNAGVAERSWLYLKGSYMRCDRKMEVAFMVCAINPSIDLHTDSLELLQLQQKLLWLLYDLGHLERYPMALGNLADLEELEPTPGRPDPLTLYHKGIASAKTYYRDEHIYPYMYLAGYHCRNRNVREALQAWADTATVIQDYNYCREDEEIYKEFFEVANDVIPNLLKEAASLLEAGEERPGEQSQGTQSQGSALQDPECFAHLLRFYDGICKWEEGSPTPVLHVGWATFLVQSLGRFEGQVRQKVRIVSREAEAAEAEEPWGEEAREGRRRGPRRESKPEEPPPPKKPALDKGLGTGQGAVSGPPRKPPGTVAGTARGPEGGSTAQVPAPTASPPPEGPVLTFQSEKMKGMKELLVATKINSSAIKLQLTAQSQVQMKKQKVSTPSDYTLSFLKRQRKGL
Sequence (Q03164 1-2718 partner limits assumed): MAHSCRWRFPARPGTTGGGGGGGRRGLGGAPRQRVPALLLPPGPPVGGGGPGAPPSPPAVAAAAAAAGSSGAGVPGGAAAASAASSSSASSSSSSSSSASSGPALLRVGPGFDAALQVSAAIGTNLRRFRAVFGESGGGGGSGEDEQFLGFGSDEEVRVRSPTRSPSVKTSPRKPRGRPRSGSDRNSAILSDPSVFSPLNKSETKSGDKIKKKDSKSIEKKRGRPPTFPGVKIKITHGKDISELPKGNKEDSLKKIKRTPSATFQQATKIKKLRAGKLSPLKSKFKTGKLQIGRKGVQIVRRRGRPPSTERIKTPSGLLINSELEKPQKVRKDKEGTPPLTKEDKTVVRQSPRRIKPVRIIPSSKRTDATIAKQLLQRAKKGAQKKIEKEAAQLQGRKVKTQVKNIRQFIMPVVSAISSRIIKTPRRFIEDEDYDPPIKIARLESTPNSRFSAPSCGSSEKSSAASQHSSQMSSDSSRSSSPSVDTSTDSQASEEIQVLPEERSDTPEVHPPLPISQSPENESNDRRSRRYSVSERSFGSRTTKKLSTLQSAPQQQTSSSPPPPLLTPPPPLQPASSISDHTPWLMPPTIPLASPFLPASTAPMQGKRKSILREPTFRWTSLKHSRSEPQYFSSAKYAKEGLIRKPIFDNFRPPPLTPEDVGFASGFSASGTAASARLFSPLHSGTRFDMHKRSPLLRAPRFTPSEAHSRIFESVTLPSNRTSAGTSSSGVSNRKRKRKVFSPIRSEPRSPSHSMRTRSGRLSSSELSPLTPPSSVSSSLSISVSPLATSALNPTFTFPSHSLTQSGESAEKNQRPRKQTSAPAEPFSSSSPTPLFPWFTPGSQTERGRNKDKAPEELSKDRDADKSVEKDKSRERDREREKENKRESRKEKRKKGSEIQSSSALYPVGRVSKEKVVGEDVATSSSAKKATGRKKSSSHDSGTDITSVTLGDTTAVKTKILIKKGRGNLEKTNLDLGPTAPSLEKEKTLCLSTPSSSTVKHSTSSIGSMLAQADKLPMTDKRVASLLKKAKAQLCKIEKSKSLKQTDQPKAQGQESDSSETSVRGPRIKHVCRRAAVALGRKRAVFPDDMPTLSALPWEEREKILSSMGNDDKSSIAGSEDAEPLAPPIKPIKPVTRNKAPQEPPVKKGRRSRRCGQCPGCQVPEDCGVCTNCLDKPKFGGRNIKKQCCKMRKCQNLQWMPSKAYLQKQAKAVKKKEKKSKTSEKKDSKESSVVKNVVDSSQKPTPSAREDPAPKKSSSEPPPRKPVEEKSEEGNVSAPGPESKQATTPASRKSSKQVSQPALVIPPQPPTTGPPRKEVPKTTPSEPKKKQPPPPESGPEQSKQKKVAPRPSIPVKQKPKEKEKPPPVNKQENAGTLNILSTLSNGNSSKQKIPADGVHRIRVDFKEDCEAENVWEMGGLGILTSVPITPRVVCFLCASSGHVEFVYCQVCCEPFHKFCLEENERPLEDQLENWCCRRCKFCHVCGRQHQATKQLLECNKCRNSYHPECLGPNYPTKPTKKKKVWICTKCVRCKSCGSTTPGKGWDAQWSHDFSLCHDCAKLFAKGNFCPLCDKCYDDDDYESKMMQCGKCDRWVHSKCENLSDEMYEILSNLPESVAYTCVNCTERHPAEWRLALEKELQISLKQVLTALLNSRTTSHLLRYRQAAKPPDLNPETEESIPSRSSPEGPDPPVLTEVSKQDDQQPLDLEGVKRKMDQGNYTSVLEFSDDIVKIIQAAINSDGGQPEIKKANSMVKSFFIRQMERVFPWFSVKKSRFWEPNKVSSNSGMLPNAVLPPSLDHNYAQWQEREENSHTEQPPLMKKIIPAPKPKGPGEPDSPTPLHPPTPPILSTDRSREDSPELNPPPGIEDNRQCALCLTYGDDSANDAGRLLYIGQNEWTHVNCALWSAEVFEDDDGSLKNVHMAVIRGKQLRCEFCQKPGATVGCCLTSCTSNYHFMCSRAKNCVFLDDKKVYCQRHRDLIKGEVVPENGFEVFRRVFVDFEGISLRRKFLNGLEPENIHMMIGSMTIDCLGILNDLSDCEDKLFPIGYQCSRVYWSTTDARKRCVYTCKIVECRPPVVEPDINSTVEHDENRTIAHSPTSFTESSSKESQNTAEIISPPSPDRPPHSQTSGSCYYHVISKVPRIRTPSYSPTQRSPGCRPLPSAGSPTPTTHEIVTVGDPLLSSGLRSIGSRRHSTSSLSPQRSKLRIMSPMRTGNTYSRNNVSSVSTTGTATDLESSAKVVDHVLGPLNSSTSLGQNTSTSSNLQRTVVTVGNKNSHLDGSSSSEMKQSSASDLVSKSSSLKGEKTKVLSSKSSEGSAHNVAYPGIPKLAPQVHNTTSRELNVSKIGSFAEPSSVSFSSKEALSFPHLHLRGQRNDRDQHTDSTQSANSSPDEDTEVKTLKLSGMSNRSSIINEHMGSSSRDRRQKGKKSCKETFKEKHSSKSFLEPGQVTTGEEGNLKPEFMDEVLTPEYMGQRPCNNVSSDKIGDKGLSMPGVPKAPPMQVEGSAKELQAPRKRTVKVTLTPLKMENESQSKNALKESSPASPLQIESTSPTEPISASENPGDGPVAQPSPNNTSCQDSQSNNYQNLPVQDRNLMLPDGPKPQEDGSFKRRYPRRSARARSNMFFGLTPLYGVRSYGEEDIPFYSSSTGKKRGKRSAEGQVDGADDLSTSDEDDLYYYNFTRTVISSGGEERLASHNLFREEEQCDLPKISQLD
Sequence (Q03164 2719-3969 partner limits assumed): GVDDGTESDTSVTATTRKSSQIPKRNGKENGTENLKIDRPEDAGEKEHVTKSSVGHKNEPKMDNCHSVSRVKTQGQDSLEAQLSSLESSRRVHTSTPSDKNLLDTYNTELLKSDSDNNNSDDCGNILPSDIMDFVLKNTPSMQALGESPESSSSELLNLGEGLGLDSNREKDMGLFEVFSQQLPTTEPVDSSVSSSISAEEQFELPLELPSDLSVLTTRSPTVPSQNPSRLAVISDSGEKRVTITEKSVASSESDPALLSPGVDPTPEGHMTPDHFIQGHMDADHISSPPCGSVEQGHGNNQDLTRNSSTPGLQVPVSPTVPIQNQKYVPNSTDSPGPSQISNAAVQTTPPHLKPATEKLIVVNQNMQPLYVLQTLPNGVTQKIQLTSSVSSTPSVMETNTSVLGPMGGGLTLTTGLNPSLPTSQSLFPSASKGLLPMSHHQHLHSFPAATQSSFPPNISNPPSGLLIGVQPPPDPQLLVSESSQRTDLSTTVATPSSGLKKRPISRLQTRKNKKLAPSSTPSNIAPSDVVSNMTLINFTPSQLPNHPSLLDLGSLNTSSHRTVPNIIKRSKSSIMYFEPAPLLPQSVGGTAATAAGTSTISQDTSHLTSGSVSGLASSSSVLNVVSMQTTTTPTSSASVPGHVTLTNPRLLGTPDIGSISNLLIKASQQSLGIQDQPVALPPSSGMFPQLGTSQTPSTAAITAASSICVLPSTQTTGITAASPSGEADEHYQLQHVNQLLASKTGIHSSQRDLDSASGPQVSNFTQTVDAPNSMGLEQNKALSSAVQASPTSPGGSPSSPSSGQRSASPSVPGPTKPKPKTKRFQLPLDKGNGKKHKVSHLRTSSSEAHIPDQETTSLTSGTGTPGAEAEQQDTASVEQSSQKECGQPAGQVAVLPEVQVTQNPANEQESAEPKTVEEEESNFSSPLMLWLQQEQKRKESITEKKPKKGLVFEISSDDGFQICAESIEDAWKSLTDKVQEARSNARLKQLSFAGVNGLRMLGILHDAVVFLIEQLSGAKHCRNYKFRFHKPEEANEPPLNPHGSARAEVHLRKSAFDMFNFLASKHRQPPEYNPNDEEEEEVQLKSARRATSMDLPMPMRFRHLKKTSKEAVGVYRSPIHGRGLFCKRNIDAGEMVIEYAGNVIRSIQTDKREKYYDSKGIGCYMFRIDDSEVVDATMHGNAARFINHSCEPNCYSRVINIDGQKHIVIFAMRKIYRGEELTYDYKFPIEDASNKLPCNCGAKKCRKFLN
Assay: Inhibition of menin-MLL1 (unknown origin) protein-protein interaction by HTRF assay
quantityMeasured: log10(IC50) (log10 of the value in nM)
Please interpret these as log10 of IC50 where IC50 is in nM.

As a guide, the following entries are already answered.
compound	log10(IC50)
Cn1cc2c(n1)CCCC2N1CC2(CCN(c3ncnc4sc(CC(F)(F)F)cc34)C2)C1 (stereo unspecified)	2.59
FC(F)(F)Cc1cc2c(N3CCCC4(CCN(Cc5ccccc5)C4)C3)ncnc2s1 (stereo unspecified)	2.36
CC(C)[C@H](C1CNC1)N1CC2(CCN(c3ncnc4sc(CC(F)(F)F)cc34)C2)C1	0.90
FC(F)(F)Cc1cc2c(N3CCC4(CN(Cc5ccccc5)C4)C3)ncnc2s1	2.16

Entry CC(C)[C@@H](C1CNC1)N1CC2(CCN(c3ncnc4sc(CC(F)(F)F)cc34)C2)C1 has what log10(IC50)?
2.28

Entry O=C([C@@H]1CC2(CC2)CN1)N1CC2(CCN(c3ncnc4sc(CC(F)(F)F)cc34)C2)C1 has what log10(IC50)?
2.01
